Data origin: PubChem BioAssay AID1851

biological target: Cytochrome P450 2C19 (Homo sapiens); assay: Cytochrome panel assay with activity outcomes; settings: recombinant CYP, pro-luciferin dealkylation, luminescence, p450-cyp2c19; series mostly up to 57.1 µM
In all, about 16,000 compounds went through this assay and about 5,800 (36%) were called active. About 23% were inconclusive and are not listed. The call rests on the fitted dose curve; in most records, active means well fitted curve in the direction sought with a large enough effect; inconclusive means small, poorly fitted or top-dose-only effect, or effect the other way; inactive means no such curve, though single readings can be large or run the other way. The list shows a part of the results.
Give your call using only these classes: true = active, false = inactive

Molecule	Target entity	Category label
O=C(Nc1ccc(Cl)cc1)OCc1cc(-c2ccccc2)on1	Cytochrome P450 2C19 (Homo sapiens)	true
COCc1nnc(NC(=O)CCN2C(=O)c3ccccc3C2=O)s1	Cytochrome P450 2C19 (Homo sapiens)	false
COCc1nnc(NC(=O)CSc2ccc(C)cc2)s1	Cytochrome P450 2C19 (Homo sapiens)	true

# lookup: test call for COc1ccc(/C=C/C(=O)Nc2ccccc2C(=O)N2CCCC2)cc1
false

Which outcome was entered for the molecule CS(=O)(=O)c1ccccc1COC(=O)Nc1ccc(Cl)cc1 in this test?
true

How did this test come out for O=C(Nc1ccccc1)OCc1cc(-c2ccc(Cl)cc2)on1 ?
true

Outcome logged for COc1ccc(S(=O)(=O)Nc2ccc(S(=O)(=O)N3CCCCC3)cc2)cc1C in this assay:
true

// outcome(item) with item = O=C(N/N=C/c1ccco1)c1ccc(Br)o1
false
